Molecular target: T1, human myostatin (mature, recombinant; R&D Systems) (human, UniProt O14793 267-375)
T1 sequence: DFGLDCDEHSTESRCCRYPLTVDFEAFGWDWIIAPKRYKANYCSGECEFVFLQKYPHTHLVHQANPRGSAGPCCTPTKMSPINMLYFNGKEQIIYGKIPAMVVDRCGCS
Experiment: cell-based or functional assay
experimentalEndpoint: pSmad2 IC50, 12-point (nM)

2524_H11 (designed binder) MGVSDVPRDLEVVAATPTSLLISWSLPHAGHAHYYRITYGETGGNSPVQEFTVPGRGVTATISGLKPGVDYTITVYAVTVSSTKVIVYLPISINYRTEIDKPSQHHHHHH : 0.11

[P] 2525_F07 (designed binder) MGVSDVPRDLEVVAATPTSLLISWSLPYAAHMNYYRITYGETGGNSPVQEFTVPGRGVTATISGLKPGVDYTITVYAVTLTRSQVIHYMPISINYRTEIDKPSQHHHHHH
[Q] 2523_G06 (designed binder) MGVSDVPRDLEVVAATPTSLLISWWAPLGLARYYRITYGETGGNSPVQEFTVPGRGSTATISGLKPGVDYTITVYAVTIFRTGMVQYDPISINYRTEIDKPSQHHHHHH
[R] 2525_B01 (designed binder) MGVSDVPRDLEVVAATPTSLLISWTLPNFGLINYYRITYGETGGNSPVQEFTVPGRGVTATISGLKPGVDYTITVYAVTITKSTIIIYKPISINYRTEIDKPSQHHHHHH
[S] 1979_B06 (designed binder, monoAdnectin with His6 tag; also called ATI-1133) MGVSDVPRDLEVVAATPTSLLISWSLPHAGHVNYYRITYGETGGNSPVQEFTVPGRGVTATISGLKPGVDYTITVYAVTLTKSQMIHYMPISINYRTEIDKPSQHHHHHH
## Task Please rank these binders by pSmad2 IC50, 12-point in descending order. Write the labels in rank order as requested.
## Result S, Q, P, R
(S: 12.8 nM, Q: 0.78 nM, P: 0.27 nM, R: 0.14 nM)

Taken from patent US20170088602A1.
